TGI listing for selected compounds.
system: HCT-116 colon; test: NCI tumour cell line growth inhibition, 48 h

Solved cases below.
- compound: "COc1cccc(C2c3cc4c(cc3OC(Nc3ccccc3)C2C)OCO4)c1O (stereo not drawn)"
  TGI: "36 µM"
- compound: "CC(=O)N1CCN(CCNC(=O)n2cc(-c3ccncc3)c(-c3cc(O)cc(Cl)c3)n2)CC1"
  TGI: "18.8 µM"
- compound: "Oc1ccc(Oc2cc3c(cc2Oc2ccc(O)cc2)-c2nc-3nc3[nH]c(nc4nc(nc5[nH]c(n2)c2cc(Oc6ccc(O)cc6)c(Oc6ccc(O)cc6)cc52)-c2cc(Oc5ccc(O)cc5)c(Oc5ccc(O)cc5)cc2-4)c2cc(Oc4ccc(O)cc4)c(Oc4ccc(O)cc4)cc32)cc1"
  TGI: "> 100 µM"
- compound: "O=c1c2ccccc2nc2ccc3c(Cl)[nH][nH]c3c12"
  TGI: "> 100 µM"

So the reported TGI for "CCCc1cc(=O)n2c(C(=O)Nc3ccc(F)cc3)c(C(=O)Nc3ccc(F)cc3)sc2n1" , on HCT-116 colon, turned out to be > 160 µM

Form field, TGI with HCT-116 colon, item CC(=O)OC12C=C(C)C(C(C)C1)C1C(=O)N(CCN3CCCCC3)C(=O)C12 (stereo not drawn) : > 50 µM

// compound "NC(=S)NC/C=C/Cl" , assay HCT-116 colon, TGI value: > 100 µM

For the compound O=[N+]([O-])c1ccc(Cl)c(CNc2ncnc3c2ncn3C2CCCCO2)c1 (stereo not drawn) , the measured TGI on HCT-116 colon was > 100 µM

---

Each record here notes measured TGI.
system: IGROV1 ovarian; assay: NCI tumour cell line growth inhibition, 48 h

Reference set (3 entries):
- molecule: "CCSC1=CC2(O)N(CCc3ccc(OC)c(OC)c3)C(=O)CC2(C(=O)OC)CC1=O (stereo unspecified)"
  TGI: "33.6 µM"
- molecule: "Cn1c(=O)sc2cc(C(=S)N3CCCCC3)ccc21"
  TGI: "> 100 µM"
- molecule: "COc1ccc(-c2ccc(/C=N/n3c(COc4ccccc4Cl)nn(CN4CCOCC4)c3=S)o2)c([N+](=O)[O-])c1"
  TGI: "> 100 µM"

// TGI lookup, molecule = O=C(O)c1cccc(NC(C(=O)c2ccccc2)c2ccccc2)c1 (stereo unspecified) , result: > 100 µM

Lab note: measured TGI of COc1ccccc1C1C(C#N)=C(N)Oc2n[nH]c(C)c21 (stereo unspecified) was 95.7 µM

Measured TGI, "O=C(c1ccc(Cl)cc1)N1CCN=C1c1cc2ccccc2c2ccccc12" : 29.2 µM

So, "COc1ccc2oc3c(OC)c(OC)c(OC)cc3c(=O)c2c1" ? Its TGI was > 100 µM

In plain terms, "COc1ccc(C)cc(=O)c1O" has a documented TGI of > 100 µM

Kindly note the recorded TGI for "CC(C)OC(=S)Nc1ccc(Cl)c(/C=N/OC(C)(C)C)c1" , which is 36.6 µM

TGI for "NC(=S)NC/C=C/Cl" is > 100 µM

response.value for CCOC1=C(c2ccccc2)N2CCCCC2O1 (stereo unspecified) (field: TGI) = > 51.4 µM

---

test system: NCI-H522 lung; assay: NCI tumour cell line growth inhibition, 48 h
experimental endpoint: GI50

// below: answered compounds
- compound: "CNCCCNc1nc2ccccc2c2c(=O)c3cc(OC)ccc3sc12"
  GI50: "1840 nM"
- compound: "CN(C)CCCn1c(=O)c2ccccc2c2cnc3[nH]ccc3c21"
  GI50: "1820 nM"
- compound: "COc1ccccc1C1C(C#N)=C(N)Oc2n[nH]c(C)c21 (stereo unspecified)"
  GI50: "56300 nM"
- compound: "O=C(CN(/C=C/C(=O)C(F)(F)F)c1ccc(Cl)cc1)c1ccc(Cl)c(Cl)c1"
  GI50: "2880 nM"

Tested on NCI-H522 lung: "COc1ccc(C(=O)c2cc(C)c(OC)c(C)c2)c(OC)c1NC(C)=O" . Observed GI50: 157 nM

Tested on NCI-H522 lung: "c1ccc(OCCC[P+](c2ccccc2)(c2ccccc2)c2ccccc2)cc1" . Observed GI50: 574 nM

# GI50 measured on NCI-H522 lung for item "O=C(Nc1ccccc1I(=O)=O)C1CCCCC1" = > 100000 nM

Record "NC(=O)c1ccc(Oc2nccc(-c3c(-c4ccc(F)cc4)ncn3C3CCNCC3)n2)cc1" ; system NCI-H522 lung; GI50 = > 25000 nM

Readout GI50 for C=C1C(O)C2CC(C)(CO)C(=O)C2=C(CC(C)C)C12CC2 (stereo unspecified) , test system NCI-H522 lung, was 68400 nM

Result for "[N-]=[N+]=NCCCn1c2c(c3ccc([N+](=O)[O-])cc3c1=O)C(=O)c1cc(Br)ccc1-2" , tested on NCI-H522 lung, GI50: > 100000 nM

Reading of GI50 for "ClCc1ccccc1Cn1cnc2ncnc(Cl)c21" with NCI-H522 lung: 2830 nM

---

tested on: SNB-19 CNS; experiment: NCI tumour cell line growth inhibition, 48 h
experimental endpoint: TGI (µM)
Write down the numeric answer in µM and omit the unit.

Reference set, count: 3
- molecule: "C=C1C(C)C2C(Cc3ccccc3)NC(=O)C23OC(=O)/C=C\\CC(=O)CCC(C)C/C=C/C3C1O (stereo not given)"
  measured: 12.9
- molecule: "CCOC(=O)c1cc(Br)c(-c2onc(C)c2Br)[nH]1"
  measured: 74.8
- molecule: "COc1nc(C#CC2CCCCC2)nc(OC)n1"
  measured: 43.6

Consider the additional molecule presented here.
Data point: "CSc1cnc2ccccc2c1Sc1c[nH]c2ccccc2c1=O" ; TGI = 65.4

---

system: HS 578T breast; test: NCI tumour cell line growth inhibition, 48 h; in the data active = GI50 below about 0.43 µM; inactive = the rest
Form entry, call: pick from True for active, False for inactive

Before answering, review these 9 worked examples.
- compound: "O=C(Nc1ccccc1I(=O)=O)C1CCCCC1"
  measured on: "HS 578T breast"
  group: "False"
- compound: "CS(=O)(=O)Nc1cccc(-c2ccc3ncnc(Nc4ccc(F)c(Cl)c4)c3c2)c1"
  measured on: "HS 578T breast"
  group: "False"
- compound: "C=C1C(O)C2CC(C)(CO)C(=O)C2=C(CC(C)C)C12CC2 (stereo not given)"
  measured on: "HS 578T breast"
  group: "False"
- compound: "CCCc1cc(=O)n2c(C(=O)Nc3ccc(F)cc3)c(C(=O)Nc3ccc(F)cc3)sc2n1"
  measured on: "HS 578T breast"
  group: "False"
- compound: "COc1ccc(-c2nc(-c3nc4ccc(C)cc4[nH]3)cc3c2[nH]c2ccccc23)cc1"
  measured on: "HS 578T breast"
  group: "False"
- compound: "C#C[C@@]1(O)[C@@H](CO)O[C@@H](n2cc(I)c3c(N)ncnc32)[C@@H]1O"
  measured on: "HS 578T breast"
  group: "False"
- compound: "CC(C)N(Cc1ccc(CN(C(=O)CCl)C(C)C)cc1)C(=O)CCl"
  measured on: "HS 578T breast"
  group: "False"
- compound: "CNCCCNc1nc2ccccc2c2c(=O)c3cc(OC)ccc3sc12"
  measured on: "HS 578T breast"
  group: "False"
- compound: "COc1ccccc1C1C(C#N)=C(N)Oc2n[nH]c(C)c21 (stereo not given)"
  measured on: "HS 578T breast"
  group: "False"

Next up:
Data request: Which outcome did this test record for the compound "COc1ccc(C(=O)c2cc(C)c(OC)c(C)c2)c(OC)c1NC(C)=O" ?
Data returned: True

---

system: HOP-92 NSCLC; experiment: NCI tumour cell line growth inhibition, 48 h; in the data active means GI50 below about 0.43 µM; inactive means the rest
One label from this list, please: true (1) (active), false (0) (inactive)

Data request: Per the assay record, what outcome was assigned to "CCCc1cc(=O)n2c(C(=O)Nc3ccc(F)cc3)c(C(=O)Nc3ccc(F)cc3)sc2n1" ?
Data returned: false (0)

Data request: For this compound, state the assay outcome: "CCCOC(=O)c1c(C)n(C)c2scc[n+]12"
Data returned: false (0)

Data request: Per the records of this test, what outcome belongs to "Cc1c(C#N)cccc1[C@@H](C)Nc1nnc(C)c2cnc(N3CCOCC3)cc12" ?
Data returned: true (1)

Data request: Query: recorded result category for "CC(=O)N1CCN(CCNC(=O)n2cc(-c3ccncc3)c(-c3cc(O)cc(Cl)c3)n2)CC1" in this test
Data returned: false (0)

Data request: Would you mind telling me which call this test gave O=C(NNc1ccc(Cl)cc1)C1CCC(CNS(=O)(=O)c2ccccc2Cl)CC1 (centres undefined) ?
Data returned: false (0)

Data request: Please indicate how the test categorized "Cc1cc(C)c(C#N)c(Sc2nc(C)c([N+](=O)[O-])c(C)c2C#N)n1" .
Data returned: false (0)

Data request: Hi, do you know how "O=C(NCC(F)(F)F)Nc1cccc(-c2cnc3cc(-c4ccc(F)cc4)ccn23)c1" came out in this test?
Data returned: false (0)

Data request: For CCCCCCCCCCCCC(O)c1ccco1 (centres undefined) , what call appears in the results of this test?
Data returned: false (0)

Data request: Hey, what did the test say about COc1ccccc1S(=O)(=O)Nc1ccc2c3c(cc(CCC(=O)NCCCCNc4cccc5c4C(=O)N(C4CCC(=O)NC4=O)C5=O)cc13)C(=O)N2C (centres undefined) ?
Data returned: true (1)

Data request: Record lookup: outcome of this test for "ClCc1ccccc1Cn1cnc2ncnc(Cl)c21" ?
Data returned: false (0)

Data request: For "COc1ccc(-c2ccc(/C=N/n3c(COc4ccccc4Cl)nn(CN4CCOCC4)c3=S)o2)c([N+](=O)[O-])c1" , what call appears in the results of this test?
Data returned: false (0)

Data request: What did the test return for "COC(=O)c1c(-c2cccs2)oc(-c2cccs2)c1C(=O)OC" ?
Data returned: false (0)

Data request: Give the logged outcome of this assay for the following compound: "CCC[CH2][Sn]([CH2]CCC)([S]C#N)[S]C#N"
Data returned: false (0)

Data request: Can you look up the reported call for "CCCCCCSSC(=S)N(CC)CC" for me?
Data returned: false (0)
